assay-overview: protein stability index of a GFP-peptide fusion (GPS, HEK-293T) (PSI 1-6); higher = more stable;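 also: 24-mer peptide tiles fused after GFP, lentivirally expressed, FACS-sorted into six equal bins by GFP/DsRed ratio, decoded by Illumina sequencing, PSI is the read-weighted mean bin number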
measurement-parameters: treatment: MLN4924 1 uM, 8 h; c terminus: a fixed tail appended
Entries and their measured protein stability index follow.
parameter-measured: protein stability index

INSERT INTO measurements (sequence_code, value_measured) VALUES
  ('AKDLRAPPEQGKIFIARRSLLDEL [SOAT1]', 3.15),
  ('KPASKPAGSSHTPSSQSSSGGGRD [ELOA2]', 5.48),
  ('PSDPPAMSPGPLDALSSPTSVQEA [C2CD2L]', 5.42),
  ('GHEYAAKIINTKKLSARDHQKLER [CAMK2B]', 4.32),
  ('LKLTVVEDVTVGRRQAVAWLVAMH [ZFYVE21]', 2.91),
  ('RGEAEAFAIGARARAEAEQMAKKA [FLOT1]', 5.17),
  ('VSIMYLVLVLAVQVHAWQLYYSKK [JAGN1]', 3.27),
  ('DAAAILLDEQNKRPCRKFLLTGQC [ZMAT5]', 3),
  ('NFDDILNVCDDYDVTCNEFFFDRN [KCNG1]', 3.27),
  ('PERSYVFNGDFVDRGKDSVEILMI [PPEF2]', 2.23),
  ('GIDLAVYETLKNAWLQHYAVNSAD [SLC25A25]', 2.4),
  ('LTEIYRIVSQKQIADRAAHDESPG [RAB11B]', 3.52),
  ('CSSFMAPPVTDLGELRRRPGDMKT [CPOX]', 3.31),
  ('LRGKSIKRAPGEETEKEEEEEDRE [NEUROD6]', 5.67);

Hey, just so you know, these numbers are from the supplement of paper PMC10567573.
